Tested on: HIV clinical isolated, characterised by mutations in the RT gene inducing geno-phenotypic resistance to AZT
Assay: p24 production susceptibility test (ACTG protocol), Table 1
Format: cell-based, HIV-1
Conditions: Human immunodeficiency virus 1, PBMC, PBMC; Gen. M41L D67N K70RM 184V T215F; read-out: E:C.50 HCQ
readout name: pEC50
Scale explanation: pEC50 corresponds to minus log10 of a concentration expressed in moles per litre.

# input What pEC50 value was documented for this compound, CCN(CCO)CCCC(C)Nc1ccnc2cc(Cl)ccc12 (stereo not shown) [HCQ, hydroxychloroquine] ?
# output 5.60

----------
Test system: HIV-1 strains geno-phenotypically resistant to EFV
Assay: p24 production susceptibility test, Table 7, MT-2 cells
Assay type: cell-based
Conditions: Human immunodeficiency virus 1, MT2, MT-2; Gen. K103N V108D; read-out: E.C.50 CQ
readout name: EC50
Quick note: number first, unit second.

# input Form field: reported EC50 of CCN(CC)CCCC(C)Nc1ccnc2cc(Cl)ccc12 (stereo not shown)
# output 2.2 µM

----------
System: HIV-1 strains geno-phenotypically resistant to EFV
Test: p24 production susceptibility test, Table 7, MT-2 cells
Assay type: cell-based
Conditions: Human immunodeficiency virus 1, MT2, MT-2; Gen. K103N V108D; read-out: E.C.50 HCQ
readout name: pEC50
Keep it numeric: pEC50 is minus log10 of the concentration in mol/L.

# input Suppose we examine the compound CCN(CCO)CCCC(C)Nc1ccnc2cc(Cl)ccc12 (stereo not shown) [HCQ, hydroxychloroquine] ; what pEC50 value has been reported?
# output 5.55

----------
Test system: HIV-1 strains cultivated in PBMC and isolated from patient naive to the treatment
Test: p24 production susceptibility test (ACTG protocol), Table 11
Format: cell-based
Conditions: Human immunodeficiency virus 1, PBMC, PBMC; Virus N°3; read-out: E.C.50 HCQ
readout name: EC50 (nM)
Note: unit nM is implicit; provide only the numeric part.

# input What measured EC50 goes with CCN(CCO)CCCC(C)Nc1ccnc2cc(Cl)ccc12 (stereo not shown) [HCQ, hydroxychloroquine] ?
# output 1500

----------
Test system: HIV-1 strains cultivated in PBMC and isolated from patient naive to the treatment
Assay: p24 production susceptibility test (ACTG protocol), Table 11
Format: cell-based
Settings: Human immunodeficiency virus 1, PBMC, PBMC; Virus N°4; read-out: E.C.50 CQ
readout name: pEC50
To interpret pEC50, take it as minus log10 of a concentration measured in moles per litre.

# input State the recorded pEC50 for this entry: CCN(CC)CCCC(C)Nc1ccnc2cc(Cl)ccc12 (stereo not shown) [CQ, chloroquine]
# output 5.60

----------
System: HIV-1 strains cultivated in PBMC and isolated from patient naive to the treatment
Assay: p24 production susceptibility test (ACTG protocol), Table 11
Assay type: cell-based
Conditions: Human immunodeficiency virus 1, PBMC, PBMC; Virus N°2; read-out: E.C.50 CQ
readout name: EC50 (nM)
State the answer as a number, implicitly in nM.

# input Give the measured EC50 of CCN(CC)CCCC(C)Nc1ccnc2cc(Cl)ccc12 (stereo not shown) .
# output 2200

----------
System: HIV clinical isolated, characterised by mutations in the RT gene inducing geno-phenotypic resistance to AZT
Assay: p24 production susceptibility test (ACTG protocol), Table 1
Type: cell-based, HIV-1
Settings: Human immunodeficiency virus 1, PBMC, PBMC; Gen. D 67 Ns K 70N T215F K219Q; read-out: E:C.50 HCQ
readout name: pEC50
Conceptually, pEC50 converts a concentration in mol/L into minus its log10.

# input Entry under review: CCN(CCO)CCCC(C)Nc1ccnc2cc(Cl)ccc12 (stereo not shown) [HCQ, hydroxychloroquine] . Reported pEC50?
# output 5.60
